# testedSystem: cloned human H3 receptors (Homo sapiens)
# Construct: expressed in transfected cells
# Sequence (Q9Y5N1 whole entry): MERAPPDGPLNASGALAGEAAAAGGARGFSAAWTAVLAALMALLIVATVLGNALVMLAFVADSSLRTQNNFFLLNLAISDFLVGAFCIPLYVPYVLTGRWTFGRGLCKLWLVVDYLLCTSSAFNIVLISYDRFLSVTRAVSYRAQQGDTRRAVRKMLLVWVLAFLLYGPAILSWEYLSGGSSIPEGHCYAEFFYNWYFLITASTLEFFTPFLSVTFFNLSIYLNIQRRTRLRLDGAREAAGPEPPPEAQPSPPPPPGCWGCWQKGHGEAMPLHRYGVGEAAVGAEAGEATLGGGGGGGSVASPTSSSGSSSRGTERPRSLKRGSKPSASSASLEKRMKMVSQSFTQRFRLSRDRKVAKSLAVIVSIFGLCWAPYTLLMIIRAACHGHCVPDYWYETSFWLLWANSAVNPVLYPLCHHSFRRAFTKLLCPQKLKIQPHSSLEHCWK
# assayText: H3 Receptor Binding (Human)
# conditionDescription: cloned human H3 receptors stably expressed in SK-N-MC cells; average of the results obtained; read-out: Human H3 Ki
Counter-ions that a name gives are not always drawn.
attributeMeasured: Ki (nM)

Cc1cc(Oc2ccc(C(=O)N3CCCN(C4CC4)CC3)nc2C#N)ccc1Cl | 3
CC(C)N1CCN(C(=O)c2ccc(Oc3ccc(Cl)c(Cl)c3)c(C(N)=O)n2)CC1 [Example 54, trifluoroacetic acid salt] | 104
O=C(c1cccc(Oc2ccc(Cl)c(Cl)c2)n1)N1CCCN(C2CCC2)CC1 | 34
CC(C)N1CCN(C(=O)c2ccc(Oc3ccc(F)c(F)c3)nc2)CC1 | 13
CSc1ccc(Oc2ccc(C(=O)N3CCN(C4CCCC4)CC3)cn2)cc1C | 98

[A] Cc1cc(Oc2cccc(C(=O)N3CCCN(C4CCC4)CC3)n2)ccc1Cl [Example 48, trifluoroacetic acid salt]
[B] CCN1CCCN(C(=O)c2ccc(Oc3ccc(F)cc3)nc2)CC1
[C] O=C(c1ccc(Oc2ccc(Cl)cc2)nc1)N1CCCN(C2CC2)CC1
[D] O=C(c1ccc(Oc2cccc(Cl)c2)nc1)N1CCCN(C2CC2)CC1
[E] CSc1ccc(Oc2ccc(C(=O)N3CCCN(C4CC4)CC3)nc2C(N)=O)cc1
Ask: List the 5 entries from lowest Ki to highest Ki value. Returns: the labels listed in the requested order.
Reply: D, C, B, E, A

[I] CSc1ccc(Oc2ccc(C(=O)N3CCCN(C4CCC4)CC3)cn2)cc1
[II] CC(C)N1CCN(C(=O)c2ccc(Oc3ccccc3)nc2)CC1
[III] CSc1ccc(Oc2ccc(C(=O)N3CCCN(C4CC4)CC3)cn2)cc1C
Ask: Rank entries according to their Ki, from the largest number down. Returns: the labels listed in the requested order.
Reply: II, I, III

[A] CC(C)N1CCN(C(=O)c2ccc(Oc3ccc(Cl)cc3)nc2)CC1
[B] CC(C)N1CCN(C(=O)c2cccc(Oc3ccc(Cl)c(Cl)c3)n2)CC1
Ask: Given A and B , report the one with the higher recorded Ki. Reply briefly: the label of your chosen item.
Reply: B
(B: 299 nM, A: 68 nM)
